Taken from paper PMC7914897.

// TGI lookup, one value per entry
Test system: SR (Leukemia)
Experiment: NCI-60 screen (SRB, 48 h)
Type: cell-based
measurement_kind: TGI (µM)

{"compound": "C=C(C)C1CCC2(CO)CCC3(C)C(CCC4C5(C)CCCNC(C)(C)C5CCC43C)C12 (stereo not drawn)", "system_under_test": "SR (Leukemia)", "measurement_kind": "TGI", "result_modifier": "=", "assay_value": 3.79}
{"compound": "CC1(C)CC[C@]23CC[C@]4(C)[C@H](CC[C@@H]5[C@@]6(C)CCCNC(C)(C)[C@@H]6CC[C@]54C)[C@H]2[C@H]1OC3", "system_under_test": "SR (Leukemia)", "measurement_kind": "TGI", "result_modifier": "=", "assay_value": 4.12}
{"compound": "CC(C)=C1CCC=C2CC[C@]3(C)[C@H](CC[C@@H]4[C@@]5(C)CCCNC(C)(C)[C@@H]5CC[C@]43C)[C@H]21", "system_under_test": "SR (Leukemia)", "measurement_kind": "TGI", "result_modifier": "=", "assay_value": 3.16}
{"compound": "CC1(C)CC[C@]2(CO)CC[C@]3(C)C(=CC[C@@H]4[C@@]5(C)CCCNC(C)(C)[C@@H]5CC[C@]43C)[C@@H]2C1", "system_under_test": "SR (Leukemia)", "measurement_kind": "TGI", "result_modifier": ">", "assay_value": 100}
{"compound": "C[C@H]1[C@H](C)CC[C@]2(CO)CC[C@]3(C)C(=CC[C@@H]4[C@@]5(C)CCCNC(C)(C)[C@@H]5CC[C@]43C)[C@H]12", "system_under_test": "SR (Leukemia)", "measurement_kind": "TGI", "result_modifier": "=", "assay_value": 3.13}
{"compound": "CC1(C)NCCC[C@]2(C)[C@H]3C=CC4=C5C[C@@](C)(CO)CC[C@]5(C)CC[C@@]4(C)[C@]3(C)CC[C@@H]12", "system_under_test": "SR (Leukemia)", "measurement_kind": "TGI", "result_modifier": "=", "assay_value": 7.17}
